assay: Cytotoxicity against human MT4 cells assessed as reduction in cell viability after 5 days by MTT assay; format: cell-based
Below, each entry is listed with its recorded CC50 at 120 h.

{"columns": ["querySmiles", "valueKind", "recordedMeasurement"],
 "data": [
  ["O=c1[nH]c2ccc(Cl)cc2n1S(=O)(=O)CCc1cccc(Cl)c1", "CC50 at 120 h", "63 µM"]
]}

// next entry
# lookup: CC50 at 120 h of `Cc1ccccc1CCS(=O)(=O)n1c(=O)[nH]c2ccc(Cl)cc21`
32 µM

---

biological target: Human immunodeficiency virus type 1 reverse transcriptase (Human immunodeficiency virus 1, UniProt Q72547, L100I); assay: Inhibition of HIV-1 reverse transcriptase L100I mutant assessed as reduction in dTTP incorporation using poly(rA)/oligo(dT)16 as template/primer after 40 mins by PicoGreen dye based spectrofluorometric analysis
valueKind: log10 of IC50 (log10 of the value in µM)
Values below are the log10 of the recorded IC50, with µM as the unit.

{"columns": ["querySmiles", "log10 of IC50"],
 "data": [
  ["O=c1[nH]c2ccc(Cl)cc2n1S(=O)(=O)Cc1cccc(Cl)c1", 1.46],
  ["Cc1ccc(CS(=O)(=O)n2c(=O)[nH]c3ccc(Cl)cc32)cc1", 1.74],
  ["Cc1ccc(CCS(=O)(=O)n2c(=O)[nH]c3ccc(Cl)cc32)cc1", 2.49],
  ["O=c1[nH]c2ccc(Cl)cc2n1S(=O)(=O)CCc1ccccc1Cl", 2.33]
]}

# lookup: log10 of IC50 of `Cc1cccc(CS(=O)(=O)n2c(=O)[nH]c3ccc(Cl)cc32)c1`
0.48

# lookup: log10 of IC50 of `Cc1cccc(CCS(=O)(=O)n2c(=O)[nH]c3ccc(Cl)cc32)c1`
1.81

# lookup: log10 of IC50 of `Cc1ccccc1CCS(=O)(=O)n1c(=O)[nH]c2ccc(Cl)cc21`
1.77

# lookup: log10 of IC50 of `O=c1[nH]c2ccc(Cl)cc2n1S(=O)(=O)CCc1ccc(Cl)cc1`
2.26

# lookup: log10 of IC50 of `O=c1[nH]c2ccc(Cl)cc2n1S(=O)(=O)Cc1ccc(Cl)cc1`
1.96

# lookup: log10 of IC50 of `O=c1[nH]c2ccc(Cl)cc2n1S(=O)(=O)Cc1ccccc1`
1.95

---

biological target: Human immunodeficiency virus type 1 reverse transcriptase (Human immunodeficiency virus 1, UniProt Q72547, K103N); test: Inhibition of HIV-1 reverse transcriptase K103N mutant assessed as reduction in dTTP incorporation using poly(rA)/oligo(dT)16 as template/primer after 40 mins by PicoGreen dye based spectrofluorometric analysis
Below, each entry is listed with its recorded IC50.

Example results:
{"columns": ["querySmiles", "valueKind", "recordedMeasurement"],
 "data": [
  ["O=c1[nH]c2ccc(Cl)cc2n1S(=O)(=O)CCc1ccccc1Cl", "IC50", "> 323 µM"],
  ["Cc1ccc(CCS(=O)(=O)n2c(=O)[nH]c3ccc(Cl)cc32)cc1", "IC50", "> 342 µM"]
]}

# lookup: IC50 of `Cc1ccccc1CS(=O)(=O)n1c(=O)[nH]c2ccc(Cl)cc21`
> 356 µM

---

Below, each entry is listed with its recorded pIC50.
molecular target: Human immunodeficiency virus type 1 reverse transcriptase (Human immunodeficiency virus 1, UniProt Q72547, L100I); experiment: Inhibition of HIV-1 reverse transcriptase L100I mutant assessed as reduction in dTTP incorporation using poly(rA)/oligo(dT)16 as template/primer after 40 mins by PicoGreen dye based spectrofluorometric analysis
pIC50: −log10 of the molar value.

{"columns": ["querySmiles", "recordedMeasurement"],
 "data": [
  ["O=c1[nH]c2ccc(Cl)cc2n1S(=O)(=O)Cc1ccccc1Cl", 5.15]
]}

# lookup: pIC50 of `O=c1[nH]c2ccc(Cl)cc2n1S(=O)(=O)CCc1ccccc1`
< 3.45

# lookup: pIC50 of `O=c1[nH]c2ccc(Cl)cc2n1S(=O)(=O)CCc1cccc(Cl)c1`
≤ 3.55
